molecular target: PAK4 Catalytic Domain (Homo sapiens, UniProt O96013); construct: For all of them, we expressed and purified the catalytic domain separately; His-tag; made in house; host or cells: Escherichia coli; assay: Differential Scanning Fluorimetry (DSF) Tm shift; format: binding; settings: 2 µM protein, 10 µM inhibitor, average of 3 experiments, each in duplicate
Sequence (O96013 321-572 limits assumed): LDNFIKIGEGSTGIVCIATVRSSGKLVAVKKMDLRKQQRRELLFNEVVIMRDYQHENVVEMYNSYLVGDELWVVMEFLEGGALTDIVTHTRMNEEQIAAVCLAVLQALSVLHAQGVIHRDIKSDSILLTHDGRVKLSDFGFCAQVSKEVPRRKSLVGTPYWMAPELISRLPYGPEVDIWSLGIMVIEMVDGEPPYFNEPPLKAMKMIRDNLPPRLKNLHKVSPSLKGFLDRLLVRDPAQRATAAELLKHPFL
Melting temperature (Tm) shift below 0.3 degrees Celcius gives NOT MET; Melting temperature (Tm) shift at or above it gives MET.

Query: Confirm if Melting temperature (Tm) shift reported for the molecule Cl.Cl.O=S(=O)(NCCNC/C=C/c1ccc(Br)cc1)c1cccc2cnccc12 [H-89, Dihydrochloride] is 0.3 degrees Celcius or above.
Result: MET

Query: Confirm if Melting temperature (Tm) shift reported for the molecule O=C1NC(=O)C(=Cc2cccc(C(F)(F)F)c2)S1 is 0.3 degrees Celcius or above.
Result: NOT MET

Query: Confirm if Melting temperature (Tm) shift reported for the molecule CN1C(=O)C(=C2Nc3ccccc3C2=NO)c2ccc(Br)cc21 [GSK-3 Inhibitor IX, Control, MeBIO] is 0.3 degrees Celcius or above.
Result: NOT MET

Query: Confirm if Melting temperature (Tm) shift reported for the molecule Cl.NCCCn1cc(C2=C(c3c[nH]c4ccccc34)C(=O)NC2=O)c2ccccc21 [Bisindolylmaleimide III, Hydrochloride] is 0.3 degrees Celcius or above.
Result: MET

====

biological target: PAK7 Catalytic Domain (Homo sapiens); construct: For all of them, we expressed and purified the catalytic domain separately; His-tag; made in house; host or cells: Escherichia coli; assay: Differential Scanning Fluorimetry (DSF) Tm shift; assay type: binding; conditions: 2 µM protein, 10 µM inhibitor, average of 3 experiments, each in duplicate
Sequence (Q9P286 449-700 limits assumed): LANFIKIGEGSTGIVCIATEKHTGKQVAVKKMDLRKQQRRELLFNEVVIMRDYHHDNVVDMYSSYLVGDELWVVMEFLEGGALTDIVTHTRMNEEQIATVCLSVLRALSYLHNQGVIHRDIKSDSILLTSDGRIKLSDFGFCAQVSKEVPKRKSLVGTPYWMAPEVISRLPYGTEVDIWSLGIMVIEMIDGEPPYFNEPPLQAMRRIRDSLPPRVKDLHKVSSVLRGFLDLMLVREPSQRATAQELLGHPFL
Response field class: enum, chosen by comparing Melting temperature (Tm) shift against Low (below 0.2 degrees Celcius), Mid (0.2 degrees Celcius to below 0.7 degrees Celcius), High (0.7 degrees Celcius or more)

Query: Using the reported Melting temperature (Tm) shift, which band applies to Cc1nc(N)sc1-c1ccnc(Nc2cccc([N+](=O)[O-])c2)n1 ?
Result: Mid

Query: Using the reported Melting temperature (Tm) shift, which band applies to O=C(c1cc2cc(O)ccc2[nH]1)c1cc2cc(O)ccc2[nH]1 ?
Result: Mid

Query: Using the reported Melting temperature (Tm) shift, which band applies to COc1ccc2c(c1)c(C1=C(c3c[nH]c4ccccc34)C(=O)NC1=O)cn2CCCN(C)C ?
Result: Low

Query: Using the reported Melting temperature (Tm) shift, which band applies to Cl.Cl.O=S(=O)(NCCNC/C=C/c1ccc(Br)cc1)c1cccc2cnccc12 [H-89, Dihydrochloride] ?
Result: Mid

Query: Using the reported Melting temperature (Tm) shift, which band applies to CC#CC(=O)Nc1cc2c(Nc3ccc(F)c(Cl)c3)ncnc2cn1 ?
Result: Low

Query: Using the reported Melting temperature (Tm) shift, which band applies to O=C1NC(=O)C(c2cn(CCCn3ccnc3)c3ccccc23)=C1Nc1ccccc1 ?
Result: Low

Query: Using the reported Melting temperature (Tm) shift, which band applies to O=C1NC(=O)c2c1c1c3ccccc3n3c1c1c2c2ccccc2n1C1CCC3O1 ?
Result: Mid

Query: Using the reported Melting temperature (Tm) shift, which band applies to c1cc(-c2cnn3cc(-c4ccc(OCCN5CCCCC5)cc4)cnc23)ccn1 ?
Result: Mid

Query: Using the reported Melting temperature (Tm) shift, which band applies to Nc1cccc(-c2cc3c(Oc4cccc(O)c4)ncnc3[nH]2)c1 ?
Result: High

Query: Using the reported Melting temperature (Tm) shift, which band applies to CC(C)n1cnc2c(NCc3ccccc3O)nc(NCCCO)nc21 ?
Result: High

Query: Using the reported Melting temperature (Tm) shift, which band applies to COc1cc2ncnc(Nc3ccc(OCc4ccccc4)cc3)c2cc1OC ?
Result: Low

Query: Using the reported Melting temperature (Tm) shift, which band applies to CCN(CC)C(=O)c1ccc(Nc2nc(OCC3CCCCC3)c3[nH]cnc3n2)cc1 ?
Result: High

Query: Using the reported Melting temperature (Tm) shift, which band applies to N#CC(c1ccnc(NCCc2cccnc2)n1)c1nc2ccccc2s1 (centres unmarked) ?
Result: Low

Query: Using the reported Melting temperature (Tm) shift, which band applies to O=C1Nc2ccccc2C1=C1Nc2ccccc2C1=NOCCC(O)CO (centres unmarked) ?
Result: High

Query: Using the reported Melting temperature (Tm) shift, which band applies to c1nc2nc(Nc3ccc(N4CCOCC4)cc3)nc(NC3CCCCC3)c2[nH]1 ?
Result: High

====

Molecular target: DMPK Catalytic Domain (Homo sapiens)
Construct: For all of them, we expressed and purified the catalytic domain separately; His-tag; made in house; host or cells: Escherichia coli
Sequence (Q09013 71-339 limits assumed): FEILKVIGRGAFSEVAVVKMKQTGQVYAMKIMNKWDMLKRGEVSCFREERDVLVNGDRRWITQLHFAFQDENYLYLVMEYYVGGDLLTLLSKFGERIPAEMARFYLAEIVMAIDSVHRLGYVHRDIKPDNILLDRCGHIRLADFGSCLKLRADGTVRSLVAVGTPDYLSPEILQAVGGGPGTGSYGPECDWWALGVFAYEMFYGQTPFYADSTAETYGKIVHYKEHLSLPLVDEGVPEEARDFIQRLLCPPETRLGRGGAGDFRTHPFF
Experiment: Differential Scanning Fluorimetry (DSF) Tm shift
Type: binding
Conditions: 2 µM protein, 10 µM inhibitor, average of 3 experiments, each in duplicate
measured.quantity: Melting temperature (Tm) shift (degrees Celcius)
Record the value in degrees Celcius, omitting the unit from your answer.

Entry under test: COc1cc2ncnc(Nc3ccc(OCc4ccccc4)cc3)c2cc1OC [EGFR/ErbB-2 Inhibitor] . Its Melting temperature (Tm) shift was 0.3

Entry under test: N#Cc1c(-c2ccccc2)cc(-c2cc(Br)ccc2O)[nH]c1=O [PIM1 Kinase Inhibitor II] . Its Melting temperature (Tm) shift was 0.1

Entry under test: O=C1Cc2c([nH]c3ccc(Br)cc23)-c2ccccc2N1 [Kenpaullone] . Its Melting temperature (Tm) shift was 1.9

Entry under test: NC(=O)Nc1cc(-c2ccccc2)sc1C(N)=O [IKK-2 Inhibitor XI] . Its Melting temperature (Tm) shift was 1.6

Entry under test: Cl.NCCCn1cc(C2=C(c3c[nH]c4ccccc34)C(=O)NC2=O)c2ccccc21 [Bisindolylmaleimide III, Hydrochloride] . Its Melting temperature (Tm) shift was 4.2

Entry under test: O=C1NC(=O)c2c1c1c3ccccc3[nH]c1c1[nH]c3cc(Br)ccc3c21 [Cdk4 Inhibitor] . Its Melting temperature (Tm) shift was 0.8

====

biological target: CDK2 + Cyclin A (Homo sapiens, UniProt P24941); construct: CDK2 (P24941); 1–299; His-tag; made in house; host or cells: Escherichia coli; test: Differential Scanning Fluorimetry (DSF) Tm shift; assay type: binding; settings: CDK2 + Cyclin A; 2 µM protein, 10 µM inhibitor; average of 3 experiments, each in duplicate
Melting temperature (Tm) shift below 0.4 degrees Celcius gives no (0); Melting temperature (Tm) shift at or above it gives yes (1).

Query: Confirm if Melting temperature (Tm) shift reported for the molecule O=C1c2ccccc2-c2n[nH]c3cccc1c23 [JNK Inhibitor II] is 0.4 degrees Celcius or above.
Result: yes (1)

Query: Confirm if Melting temperature (Tm) shift reported for the molecule CCn1cnc2c(Nc3cccc(Cl)c3)nc(N[C@H]3CCCC[C@H]3N)nc21 [Cdk1 Inhibitor, CGP74514A] is 0.4 degrees Celcius or above.
Result: yes (1)

Query: Confirm if Melting temperature (Tm) shift reported for the molecule COc1cc2ncnc(Nc3ccc(Oc4ccccc4)cc3)c2cc1OC [Src Kinase Inhibitor I] is 0.4 degrees Celcius or above.
Result: no (0)

Query: Confirm if Melting temperature (Tm) shift reported for the molecule COc1cc2ncnc(Nc3ccc(NC(=O)c4ccccc4)cc3)c2cc1OC [Aurora Kinase Inhibitor II] is 0.4 degrees Celcius or above.
Result: no (0)

Query: Confirm if Melting temperature (Tm) shift reported for the molecule O=C1C(Cl)=C(N2C(=O)CCC2=O)C(=O)c2ccccc21 [MEK Inhibitor II] is 0.4 degrees Celcius or above.
Result: no (0)

Query: Confirm if Melting temperature (Tm) shift reported for the molecule CC(C)n1cnc2c(Nc3cccc(Cl)c3)nc(NCCO)nc21 [Compound 52] is 0.4 degrees Celcius or above.
Result: yes (1)

Query: Confirm if Melting temperature (Tm) shift reported for the molecule Cl.Cl.NCCNc1ncc(C(N)=O)c(Nc2cccc(C(F)(F)F)c2)n1 [Syk Inhibitor II] is 0.4 degrees Celcius or above.
Result: yes (1)

Query: Confirm if Melting temperature (Tm) shift reported for the molecule Cn1cc(/C=C2\C(=O)Nc3ccc(S(N)(=O)=O)cc32)c2ccccc21 [Syk Inhibitor] is 0.4 degrees Celcius or above.
Result: yes (1)

Query: Confirm if Melting temperature (Tm) shift reported for the molecule O=C1c2ccccc2-c2nc3nnnn3nc21 [PDK1/Akt/Flt Dual Pathway Inhibitor] is 0.4 degrees Celcius or above.
Result: no (0)

Query: Confirm if Melting temperature (Tm) shift reported for the molecule NC(=O)Nc1sc(-c2ccccc2)cc1C(N)=O [IKK-2 Inhibitor VI] is 0.4 degrees Celcius or above.
Result: yes (1)

Query: Confirm if Melting temperature (Tm) shift reported for the molecule COc1cc(Nc2ncc3ccn(-c4cccc(CCC#N)c4)c3n2)cc(OC)c1OC [Keratinocyte Differentiation Inducer] is 0.4 degrees Celcius or above.
Result: yes (1)

Query: Confirm if Melting temperature (Tm) shift reported for the molecule N#CCCc1ccc2c(c1)-c1[nH]c3ccc([N+](=O)[O-])cc3c1CC(=O)N2 [Alsterpaullone, 2-Cyanoethyl] is 0.4 degrees Celcius or above.
Result: yes (1)

Query: Confirm if Melting temperature (Tm) shift reported for the molecule O=c1c(O)c(-c2ccc(O)c(O)c2)oc2cc(O)c(O)c(O)c12 [Quercetagetin] is 0.4 degrees Celcius or above.
Result: no (0)

Query: Confirm if Melting temperature (Tm) shift reported for the molecule COc1ccc2c(c1)c1c3c(c4c5ccccc5n(C)c4c1n2CC(O)CN(C)C)C(=O)NC3=O.Cl (stereo not drawn) [Gö 7874, Hydrochloride] is 0.4 degrees Celcius or above.
Result: no (0)

Query: Confirm if Melting temperature (Tm) shift reported for the molecule Cc1ccc([N+](=O)[O-])cc1S(=O)(=O)N(C)N=Cc1cnc2ccc(Br)cn12.Cl.O.O [PI 3-Kα Inhibitor VIII] is 0.4 degrees Celcius or above.
Result: yes (1)

Query: Confirm if Melting temperature (Tm) shift reported for the molecule O=C1NC(=O)C(c2c[nH]c3ccccc23)=C1c1c[nH]c2ccccc12 [Bisindolylmaleimide IV] is 0.4 degrees Celcius or above.
Result: yes (1)

Query: Confirm if Melting temperature (Tm) shift reported for the molecule COc1cc2ncnc(Nc3ccc(Cl)cc3Cl)c2cc1OC [Ste11 MAPKKK Activation Inhibitor] is 0.4 degrees Celcius or above.
Result: no (0)

Query: Confirm if Melting temperature (Tm) shift reported for the molecule CCN(CC)C(=O)c1ccc(Nc2nc(OCC3CCCCC3)c3[nH]cnc3n2)cc1 [Cdk2 Inhibitor IV, NU6140] is 0.4 degrees Celcius or above.
Result: yes (1)

Query: Confirm if Melting temperature (Tm) shift reported for the molecule O=C1NC(=O)c2c1c1c3ccccc3[nH]c1n1cncc21 [Isogranulatimide] is 0.4 degrees Celcius or above.
Result: no (0)

Query: Confirm if Melting temperature (Tm) shift reported for the molecule Nc1cccc(-c2cc3c(Oc4cccc(O)c4)ncnc3[nH]2)c1 [GSK3b Inhibitor XII, TWS119] is 0.4 degrees Celcius or above.
Result: yes (1)

Query: Confirm if Melting temperature (Tm) shift reported for the molecule O=C1NC(=O)/C(=C/c2ccc3nccnc3c2)S1 [PI 3-Kg Inhibitor] is 0.4 degrees Celcius or above.
Result: no (0)

Query: Confirm if Melting temperature (Tm) shift reported for the molecule CN(C)c1nc2c(Br)c(Br)c(Br)c(Br)c2[nH]1 [Casein Kinase II Inhibitor II, DMAT] is 0.4 degrees Celcius or above.
Result: yes (1)

Query: Confirm if Melting temperature (Tm) shift reported for the molecule NC(=O)Nc1sc(-c2ccc(F)cc2)cc1C(N)=O [IKK-2 Inhibitor IV] is 0.4 degrees Celcius or above.
Result: yes (1)

Query: Confirm if Melting temperature (Tm) shift reported for the molecule O=C(Nc1cccc(Nc2nccc(Nc3cccc(C(F)(F)F)c3)n2)c1)C1CC1 [Aurora Kinase Inhibitor III] is 0.4 degrees Celcius or above.
Result: no (0)

Query: Confirm if Melting temperature (Tm) shift reported for the molecule CN(C)CCCn1cc(C2=C(c3c[nH]c4ccccc34)C(=O)NC2=O)c2ccccc21 [Bisindolylmaleimide I] is 0.4 degrees Celcius or above.
Result: yes (1)

Query: Confirm if Melting temperature (Tm) shift reported for the molecule c1cc(-c2cnn3cc(-c4ccc(OCCN5CCCCC5)cc4)cnc23)ccn1 [AMPK Inhibitor, Compound C] is 0.4 degrees Celcius or above.
Result: yes (1)

Query: Confirm if Melting temperature (Tm) shift reported for the molecule CC(C)[C@H](CO)Nc1nc(Nc2cccc(Cl)c2)c2ncn(C(C)C)c2n1 [Purvalanol A] is 0.4 degrees Celcius or above.
Result: yes (1)

Query: Confirm if Melting temperature (Tm) shift reported for the molecule O=C(c1ccc(Nc2nccc(-c3cc4ccccc4s3)n2)cc1)N1CCC(N2CCCC2)CC1 [IKK Inhibitor VII] is 0.4 degrees Celcius or above.
Result: yes (1)

Query: Confirm if Melting temperature (Tm) shift reported for the molecule c1nc2nc(Nc3ccc(N4CCOCC4)cc3)nc(NC3CCCCC3)c2[nH]1 [Reversine] is 0.4 degrees Celcius or above.
Result: yes (1)

Query: Confirm if Melting temperature (Tm) shift reported for the molecule N#CC(c1ccnc(NCCc2cccnc2)n1)c1nc2ccccc2s1 (stereo not drawn) [JNK Inhibitor V] is 0.4 degrees Celcius or above.
Result: no (0)
